So I've got a bunch of molecules here, and I need their log10 of microsomal CLint at 0.5 μM values.
- Measurement notes: in vitro
- Condition info: mouse, microsomes, pH 7.4, MLM CLint, mouse liver microsomes
The base-10 logarithm of microsomal CLint at 0.5 μM, taken with microsomal CLint at 0.5 μM in µL/min/mg, is what appears here.

Request the reported log10 of microsomal CLint at 0.5 μM associated with `O=c1[nH]cccc1S(=O)(=O)N(Cc1ccc(F)cc1)Cc1ccc(F)cc1` 2.34

Request the reported log10 of microsomal CLint at 0.5 μM associated with `COc1ncc(Br)cc1S(=O)(=O)N(Cc1ccc(F)cc1)Cc1ccc(F)cc1` 2.67

Request the reported log10 of microsomal CLint at 0.5 μM associated with `COc1cc(S(=O)(=O)N(Cc2ccccc2)Cc2ccccc2)c(OC)cc1C` 3.03

Request the reported log10 of microsomal CLint at 0.5 μM associated with COCCN(Cc1ccccc1)S(=O)(=O)c1c(OC)ccc(Cl)c1[S+](C)[O-] (stereo not drawn) 2.46

Request the reported log10 of microsomal CLint at 0.5 μM associated with `CCOCCOc1ncccc1S(=O)(=O)NCc1ccc(F)cc1` 3.18

Request the reported log10 of microsomal CLint at 0.5 μM associated with `CCN(Cc1ccccc1)S(=O)(=O)c1ccccc1OC` 3.14

Request the reported log10 of microsomal CLint at 0.5 μM associated with `CCN(Cc1ccccc1)S(=O)(=O)c1cc(F)ccc1F` 2.85

Request the reported log10 of microsomal CLint at 0.5 μM associated with `COc1ccc(Cl)cc1S(=O)(=O)N(CCN(C)C)Cc1ccccc1` 2.08

Request the reported log10 of microsomal CLint at 0.5 μM associated with O=S(=O)(NC(CO)Cc1ccccc1)c1cc(F)ccc1F (stereo not drawn) 2.44

* * *

- Measurement notes: in vitro
- Condition info: human, microsomes, pH 7.4, HLM CLint, human liver microsomes
Property name: log10 microsomal CLint at 0.5 μM (log10 of the value in µL/min/mg)
The base-10 logarithm of microsomal CLint at 0.5 μM, taken with microsomal CLint at 0.5 μM in µL/min/mg, is what appears here.

Request the reported log10 microsomal CLint at 0.5 μM associated with `COCCN(Cc1ccccc1)S(=O)(=O)c1cc(OC)ccc1OC` 2.40

Request the reported log10 microsomal CLint at 0.5 μM associated with `CCCCOc1ncccc1S(=O)(=O)NCc1ccc(F)cc1` 3.22

Request the reported log10 microsomal CLint at 0.5 μM associated with O=C1c2ccccc2S(=O)(=O)N(Cc2ccccc2)C1Cc1ccccc1 (stereo not drawn) 2.15

Request the reported log10 microsomal CLint at 0.5 μM associated with `CC[C@H](Cc1ccccc1)S(=O)(=O)c1ccccc1OC` 2.66

Request the reported log10 microsomal CLint at 0.5 μM associated with `COc1ccc(C(=O)N2CCOCC2)cc1S(=O)(=O)N(Cc1ccccc1)Cc1ccccc1` 2.91

Request the reported log10 microsomal CLint at 0.5 μM associated with `CCN(Cc1ccccc1)S(=O)(=O)c1ccccc1OC` 2.61

Request the reported log10 microsomal CLint at 0.5 μM associated with `COc1ccc(Cl)cc1S(=O)(=O)N(Cc1ccccc1)Cc1ccccc1` 2.61

Request the reported log10 microsomal CLint at 0.5 μM associated with C[S+]([O-])c1c(Cl)ccc2c1S(=O)(=O)N(Cc1ccccc1)CCO2 (stereo not drawn) 1.52

Request the reported log10 microsomal CLint at 0.5 μM associated with `CN(C)CCN(Cc1ccccc1)S(=O)(=O)c1ccc(N)cc1` 1.75

Request the reported log10 microsomal CLint at 0.5 μM associated with `COc1ccc(S(=O)(=O)N(Cc2ccccc2)Cc2ccccc2)cc1` 2.26

Request the reported log10 microsomal CLint at 0.5 μM associated with `COc1ncccc1S(=O)(=O)N(Cc1ccc(F)cc1)Cc1ccccn1` 2.84

Request the reported log10 microsomal CLint at 0.5 μM associated with `CCN(Cc1ccccc1)S(=O)(=O)c1cc(F)ccc1F` 2.31

Request the reported log10 microsomal CLint at 0.5 μM associated with `COc1ccc(Cl)cc1S(=O)(=O)N(CCN(C)C)Cc1ccccc1` 3.08

Request the reported log10 microsomal CLint at 0.5 μM associated with `O=S(=O)(NCc1ccc(F)cc1)c1cccnc1OCc1ccccc1` 3.44

Request the reported log10 microsomal CLint at 0.5 μM associated with O=S(=O)(c1ccccc1Br)N(Cc1ccccc1)C(CO)Cc1ccccc1 (stereo not drawn) 3.19

* * *

- Measurement notes: in vitro
- Condition info: human, microsomes, pH 7.4, Microsome Clint,u Human, Table 2; intrinsic in vitro clearance, liver microsomes
Property name: microsomal CLint at 0.5 μM (µL/min/mg)
Write the value in µL/min/mg as a bare number.

Request the reported microsomal CLint at 0.5 μM associated with `COc1ccc(C#N)cc1S(=O)(=O)N(Cc1ccc(F)cc1)C1CCOCC1` 194

Request the reported microsomal CLint at 0.5 μM associated with `COc1ccc(OC)c(S(=O)(=O)N(C)Cc2ccc(F)cc2)c1` 414

Request the reported microsomal CLint at 0.5 μM associated with `COCCN(Cc1ccc(F)cc1)S(=O)(=O)c1cc(C(=O)N2CCOCC2)ccc1OC` 28

Request the reported microsomal CLint at 0.5 μM associated with `COc1ccc(C#N)cc1S(=O)(=O)N(Cc1ccccc1)Cc1cnc(C(F)(F)F)nc1` 100

Request the reported microsomal CLint at 0.5 μM associated with `COc1ccc(OC)c(S(=O)(=O)N(Cc2ccc(F)cc2)Cc2nc(C)no2)c1` 350

Request the reported microsomal CLint at 0.5 μM associated with `CCN(Cc1ccccc1)S(=O)(=O)c1cc(OC)ccc1OC` 534

Request the reported microsomal CLint at 0.5 μM associated with `COCCN(Cc1ccccc1)S(=O)(=O)c1cc(OC)ccc1OC` 253

* * *

- Test system: primary peritoneal mouse macrophages (PMM)
- Measurement notes: cells
- Condition info: Macrophage, read-out: PMM pIC50 (converted)
Property name: IC50

Return IC50 measured with primary peritoneal mouse macrophages (PMM) given this compound: COc1ccc(C(=O)N2CCOCC2)cc1S(=O)(=O)N(Cc1ccccc1)Cc1cnc(C(F)(F)F)nc1 [Compound 47] > 64.6 µM

Return IC50 measured with primary peritoneal mouse macrophages (PMM) given this compound: CS(=O)(=O)c1ccccc1S(=O)(=O)N(Cc1ccccc1)Cc1ccccc1 [Compound 14] > 64.6 µM

Return IC50 measured with primary peritoneal mouse macrophages (PMM) given this compound: COc1ccc(C(=O)N2CCOCC2)cc1S(=O)(=O)N(Cc1ccc(F)cc1)CC(C)C [Compound 44] > 64.6 µM

Return IC50 measured with primary peritoneal mouse macrophages (PMM) given this compound: COc1ccc(C(=O)NC2COC2)cc1S(=O)(=O)N(Cc1ccc(F)cc1)Cc1ccc(F)cc1 [Compound 23] > 64.6 µM

Return IC50 measured with primary peritoneal mouse macrophages (PMM) given this compound: COc1ccc(C(=O)N2CCOCC2)cc1S(=O)(=O)N(Cc1ccc(C(F)(F)F)nc1)CC(C)(C)C [Compound 48] > 64.6 µM

Return IC50 measured with primary peritoneal mouse macrophages (PMM) given this compound: COc1ccc(C(=O)N2CCOCC2)cc1S(=O)(=O)N(Cc1ccccc1)CC(C)(C)C [Compound 45] > 64.6 µM

Return IC50 measured with primary peritoneal mouse macrophages (PMM) given this compound: COc1ccc(OC)c(S(=O)(=O)N(Cc2ccc(F)cc2)Cc2nc(C)no2)c1 [Compound 36] > 64.6 µM

Return IC50 measured with primary peritoneal mouse macrophages (PMM) given this compound: COCCN(Cc1ccc(F)cc1)S(=O)(=O)c1cc(C#N)ccc1OC [Compound 41] > 64.6 µM

* * *

- Test system: Leishmania infantum MHOM/MA(BE)/67/ITMAP263 intracellular amastigotes
- Measurement notes: microbe, parasite or virus in culture
- Condition info: Macrophage, in Mus musculus, read-out: L. Inf. pIC50, from L. infantum intracellular amastigote IC50 (converted)
# yes = IC50 below 10 µM (exclusive); no = IC50 at/above 10 µM

Please let me know if `COCCN(Cc1ccccc1)S(=O)(=O)c1ccccc1` shows IC50 below 10 µM. no

Please let me know if `COCCOCN(Cc1ccccc1)S(=O)(=O)c1cc(OC)ccc1OC` shows IC50 below 10 µM. yes

Please let me know if `O=S(=O)(NCc1ccccc1)c1cc(F)ccc1F` shows IC50 below 10 µM. no

Please let me know if `CCN(Cc1ccccc1)S(=O)(=O)c1ccc(C)cc1` shows IC50 below 10 µM. no

Please let me know if `COc1ncc(Br)cc1S(=O)(=O)N(Cc1ccc(F)cc1)Cc1ccc(F)cc1` shows IC50 below 10 µM. no

Please let me know if `COCCN(Cc1ccccc1)S(=O)(=O)c1cc(C(=O)N2CCOCC2)ccc1OC` shows IC50 below 10 µM. no

Please let me know if `CCOCCOc1ncccc1S(=O)(=O)NCc1ccc(F)cc1` shows IC50 below 10 µM. no

Please let me know if COc1ccccc1S(=O)(=O)N(Cc1ccccc1)CC(O)c1ccc(F)cc1 (stereo not drawn) shows IC50 below 10 µM. no

Please let me know if `C=C(c1ccc(F)cc1)N(Cc1ccccc1)S(=O)(=O)c1cc(Cl)ccc1O` shows IC50 below 10 µM. yes
